- measurement target: BRAF G469A (Homo sapiens, UniProt P15056, G469A)
- Construct: Horizon Discovery (HCT-116 BRAF−/− cells); host or cells: HCT-116 BRAF−/− cells, clone 34, lentiviral transduction
- Sequence (P15056 whole entry G469A): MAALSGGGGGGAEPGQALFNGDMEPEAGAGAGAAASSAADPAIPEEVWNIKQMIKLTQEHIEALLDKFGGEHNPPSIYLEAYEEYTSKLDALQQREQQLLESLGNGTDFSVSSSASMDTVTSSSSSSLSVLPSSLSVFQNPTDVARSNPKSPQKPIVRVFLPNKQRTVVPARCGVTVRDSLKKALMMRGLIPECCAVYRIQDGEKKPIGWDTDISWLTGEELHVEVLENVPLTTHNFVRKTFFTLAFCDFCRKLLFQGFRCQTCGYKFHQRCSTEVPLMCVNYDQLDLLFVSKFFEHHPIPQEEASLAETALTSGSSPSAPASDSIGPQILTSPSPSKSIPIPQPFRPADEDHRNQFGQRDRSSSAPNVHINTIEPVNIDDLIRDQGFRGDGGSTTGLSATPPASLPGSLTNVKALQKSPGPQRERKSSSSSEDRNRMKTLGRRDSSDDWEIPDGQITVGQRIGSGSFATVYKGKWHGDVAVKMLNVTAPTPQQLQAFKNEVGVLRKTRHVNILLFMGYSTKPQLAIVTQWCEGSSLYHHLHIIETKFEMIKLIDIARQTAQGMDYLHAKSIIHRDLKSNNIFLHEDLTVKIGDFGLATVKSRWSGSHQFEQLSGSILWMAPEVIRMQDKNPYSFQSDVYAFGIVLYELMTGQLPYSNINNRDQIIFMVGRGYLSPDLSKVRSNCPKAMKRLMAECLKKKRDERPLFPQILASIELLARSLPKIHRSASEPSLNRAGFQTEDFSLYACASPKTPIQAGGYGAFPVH
- experiment: BRAF HiBiT degradation assay, C-terminal HiBiT-tagged BRAF G469A overexpressed in HCT-116 BRAF−/− cells (clone 34), Nano-Glo HiBiT Lytic assay
- Type: cell-based
- test parameters: Class 2; BRAF G469A; DC50 at 50%: fitted conc. at Y=50
readout kind: DC50

# compound, experimental value
measured = [
    ("CCCS(=O)(=O)Nc1cccc(-c2nc(C(C)(C)C)sc2-c2ccnc(Nc3ccc(N4CCN(C(=O)CC5(O)CCN(c6ccc(NC7CCC(=O)NC7=O)cc6F)CC5)CC4)c(F)c3)n2)c1F (racemic) [Compound 52]", "> 0.5 µM"),
    ("CCCS(=O)(=O)Nc1cccc(-c2nc(C(C)(C)C)sc2-c2ccnc(Nc3cnn(C4CCN(C(=O)[C@H]5CC[C@H](Oc6ccc(C7CCC(=O)NC7=O)cn6)CC5)CC4)c3)n2)c1F (mixture of isomers) [Compound 109]", "> 0.5 µM"),
    ("CCCS(=O)(=O)Nc1cccc(-c2nc(C3CCN(C(=O)C4CCN(CC5CCN(c6ccc(C7CCC(=O)NC7=O)cn6)CC5)CC4)CC3)sc2-c2ccncc2)c1F (racemic) [Compound 211]", "> 0.5 µM"),
    ("CCN(C)S(=O)(=O)Nc1cccc(-c2nc(C)sc2-c2ccnc(Nc3ccc(N4CCN(CC5CCN(c6ccc([C@H]7CCC(=O)NC7=O)cn6)CC5)CC4)cn3)n2)c1F [Compound 27]", "0.05 to 0.5 µM"),
]

----------
- measurement target: BRAF G466V (Homo sapiens, UniProt P15056, G466V)
- Construct: Horizon Discovery (HCT-116 BRAF−/− cells); host or cells: HCT-116 BRAF−/− cells, clone 8, lentiviral transduction
- Sequence (P15056 whole entry G466V): as the sequence (P15056 whole entry G469A) above, with G466V, A469G counted along it
- experiment: BRAF HiBiT degradation assay, C-terminal HiBiT-tagged BRAF G466V overexpressed in HCT-116 BRAF−/− cells (clone 8), Nano-Glo HiBiT Lytic assay
- Format: cell-based
- test parameters: BRAF G466V (Class 3), HCT-116 BRAF−/− cells; DC50 at 50% degradation
readout kind: DC50

# compound, experimental value
measured = [
    ("O=C1CCC(c2ccc(N3CCC(CN4CCN(c5ccc(-n6cc(-c7cc(Cl)cc(NS(=O)(=O)N8CC(F)C8)c7F)c(-c7ccncc7)n6)c(F)c5)CC4)CC3)nc2)C(=O)N1 (racemic)", "< 10 nM"),
    ("CCCS(=O)(=O)Nc1cccc(-c2nc(C3CCC4(CC3)CCN(C(=O)C3CCN(c5cccc6c5n(C)c(=O)n6C5CCC(=O)NC5=O)CC3)CC4)sc2-c2ccnc(N)n2)c1F (racemic)", "< 10 nM"),
    ("CCCS(=O)(=O)Nc1cccc(-c2nc(C3CCN(C(=O)C4CCN(C(=O)C5CCN(c6ccc(C7CCC(=O)NC7=O)cn6)CC5)CC4)CC3)sc2-c2ccnc(N)n2)c1F (racemic)", "< 10 nM"),
    ("O=C1CC[C@H](c2ccc(N3CCC(CN4CCN(c5ccc(-n6cc(-c7cc(Cl)cc(NS(=O)(=O)N8CC[C@@H](F)C8)c7F)c(-c7ccncc7)n6)cc5)CC4)CC3)nc2)C(=O)N1", "< 10 nM"),
    ("O=C1CCC(c2ccc(N3CCC(CN4CCN(c5ccc(-n6cc(-c7cc(C(F)F)cc(NS(=O)(=O)N8CCCC8)c7F)c(-c7ccncc7)n6)c(F)c5)CC4)CC3)nc2)C(=O)N1 (racemic)", "< 10 nM"),
    ("O=C1CCC(N2C(=O)c3ccc(N4CC(CN5CC(c6ccc(-n7cc(-c8ccc9c(c8)CC/C9=N/O)c(-c8ccncc8)n7)cc6)C5)C4)cc3C2=O)C(=O)N1 (racemic)", "> 500 nM"),
    ("CCN(C)S(=O)(=O)Nc1cc(F)cc(-c2cn(-c3ccc(N4CCN(CC5CCN(c6ccc([C@H]7CCC(=O)NC7=O)cn6)CC5)CC4)cc3)nc2-c2ccncc2)c1F", "< 10 nM"),
    ("O=C1CCN(c2ccc(N3CCC(CN4CCN(c5cnc(-n6cc(-c7cc(Cl)cc(NS(=O)(=O)N8CCCC8)c7F)c(-c7ccncc7)n6)nc5)CC4)CC3)cc2)C(=O)N1", "10 to 50 nM"),
    ("CCCS(=O)(=O)Nc1cc(Cl)cc(-c2cn(-c3ccc(N4CCN(CC5CCN(c6ccc(N7CCC(=O)NC7=O)cc6)CC5)[C@H](C)C4)cc3)nc2-c2ccncc2)c1F", "< 10 nM"),
    ("C[C@@H]1CN(c2ccc(-n3cc(-c4cc(Cl)cc(NS(=O)(=O)N5CC[C@@H](F)C5)c4F)c(-c4ccncc4)n3)cc2)CCN1CC1CCN(c2ccc(C3CCC(=O)NC3=O)cn2)CC1 (mixture of isomers)", "< 10 nM"),
]
